- EXPERIMENTAL SYSTEM: EGFR exon 20 NPG Ins D770_N771 (Ba/F3 cells) (Homo sapiens, UniProt P00533, INS770NPG)
- Construct: expressed in transfected cells; host or cells: Ba/F3 (murine pro-B cells), retroviral transduction, puromycin selection, IL3-independent pool
- Sequence (P00533 with tags, fused parts or gaps INS770NPG): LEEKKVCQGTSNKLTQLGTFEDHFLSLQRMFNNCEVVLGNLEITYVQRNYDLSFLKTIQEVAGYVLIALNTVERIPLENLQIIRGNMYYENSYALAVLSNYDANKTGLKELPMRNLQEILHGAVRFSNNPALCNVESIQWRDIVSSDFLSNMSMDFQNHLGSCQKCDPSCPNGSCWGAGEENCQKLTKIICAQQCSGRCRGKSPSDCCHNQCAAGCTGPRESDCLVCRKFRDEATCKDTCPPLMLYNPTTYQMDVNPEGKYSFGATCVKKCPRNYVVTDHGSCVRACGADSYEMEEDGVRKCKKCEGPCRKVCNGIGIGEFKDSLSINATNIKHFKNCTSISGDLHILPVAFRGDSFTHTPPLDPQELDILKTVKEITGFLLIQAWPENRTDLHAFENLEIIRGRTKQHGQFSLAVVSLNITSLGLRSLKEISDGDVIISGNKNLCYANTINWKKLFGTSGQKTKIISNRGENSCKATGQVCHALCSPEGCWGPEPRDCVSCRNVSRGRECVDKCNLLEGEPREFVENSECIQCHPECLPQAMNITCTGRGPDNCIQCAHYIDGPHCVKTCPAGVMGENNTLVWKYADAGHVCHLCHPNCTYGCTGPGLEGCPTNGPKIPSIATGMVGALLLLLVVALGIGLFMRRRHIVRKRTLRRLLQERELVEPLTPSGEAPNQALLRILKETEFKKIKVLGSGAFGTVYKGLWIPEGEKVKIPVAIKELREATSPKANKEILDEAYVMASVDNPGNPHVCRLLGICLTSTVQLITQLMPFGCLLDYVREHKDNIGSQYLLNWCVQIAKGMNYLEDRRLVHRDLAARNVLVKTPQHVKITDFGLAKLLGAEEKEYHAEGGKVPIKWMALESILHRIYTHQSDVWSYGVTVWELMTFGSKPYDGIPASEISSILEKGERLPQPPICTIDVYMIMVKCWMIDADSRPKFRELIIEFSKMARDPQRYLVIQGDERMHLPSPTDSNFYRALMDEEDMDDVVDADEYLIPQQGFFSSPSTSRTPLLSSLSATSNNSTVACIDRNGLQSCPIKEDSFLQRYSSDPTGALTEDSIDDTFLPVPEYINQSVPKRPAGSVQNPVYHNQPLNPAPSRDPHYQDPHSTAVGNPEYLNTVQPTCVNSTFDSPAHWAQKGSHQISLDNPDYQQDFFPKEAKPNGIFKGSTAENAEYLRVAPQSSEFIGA
- PROTOCOL TEXT: Inhibitor activity on EGFR-dependent cell growth (CellTiter-Glo, 72 h), Ba/F3 EGFR exon 20 NPG Ins
- Type: cell-based
- CONDITION DETAILS: read-out: BaF3 NPG IC50
OBSERVATION TYPE: IC50

# input Output reported IC50 of the molecule COc1c(Cl)cccc1Nc1c(-c2ccnc(Nc3cnn(CC(F)F)c3)n2)[nH]c2c1C(=O)NCC2 on EGFR exon 20 NPG Ins D770_N771 (Ba/F3 cells) (Homo sapiens, UniProt P00533, INS770NPG).
# output 100 to 1000 nM

# input Output reported IC50 of the molecule C=CC(=O)N1CCC2(CC1)CNC(=O)c1c2[nH]c(-c2ccncc2F)c1Nc1cccc(Br)c1OC on EGFR exon 20 NPG Ins D770_N771 (Ba/F3 cells) (Homo sapiens, UniProt P00533, INS770NPG).
# output < 100 nM

# input Output reported IC50 of the molecule COc1c(F)cccc1Nc1c(-c2ccncc2F)[nH]c2c1C(=O)NC[C@@H]2C[C@H]1CCO1 [Compound 422c] on EGFR exon 20 NPG Ins D770_N771 (Ba/F3 cells) (Homo sapiens, UniProt P00533, INS770NPG).
# output 100 to 1000 nM

# input Output reported IC50 of the molecule COCC[C@@H]1CNC(=O)c2c1[nH]c(-c1ccncc1F)c2Nc1cccc(F)c1OC [421b] on EGFR exon 20 NPG Ins D770_N771 (Ba/F3 cells) (Homo sapiens, UniProt P00533, INS770NPG).
# output < 100 nM

# input Output reported IC50 of the molecule COc1c(Cl)cccc1Nc1c(-c2ccnc(N)n2)[nH]c2c1C(=O)NC[C@@H]2C[C@@H]1COCCO1 on EGFR exon 20 NPG Ins D770_N771 (Ba/F3 cells) (Homo sapiens, UniProt P00533, INS770NPG).
# output < 100 nM

# input Output reported IC50 of the molecule COc1c(Cl)cccc1Nc1c(-c2ccnc(Nc3cnn(C)n3)n2)[nH]c2c1C(=O)NCC2 on EGFR exon 20 NPG Ins D770_N771 (Ba/F3 cells) (Homo sapiens, UniProt P00533, INS770NPG).
# output < 100 nM

# input Output reported IC50 of the molecule COc1c(Cl)cccc1Nc1c(-c2ccnc3ccc(O[C@@H]4CCCOC4)nc23)[nH]c2c1C(=O)NCC2 on EGFR exon 20 NPG Ins D770_N771 (Ba/F3 cells) (Homo sapiens, UniProt P00533, INS770NPG).
# output < 100 nM

# input Output reported IC50 of the molecule COc1nn(C)cc1Nc1nccc(-c2[nH]c3c(c2Nc2cccc(Cl)c2OC)C(=O)NCC3)n1 on EGFR exon 20 NPG Ins D770_N771 (Ba/F3 cells) (Homo sapiens, UniProt P00533, INS770NPG).
# output < 100 nM

# input Output reported IC50 of the molecule C=CC(=O)N1CCC2(CC1)CNC(=O)c1c2[nH]c(-c2ccncn2)c1Nc1cccc(F)c1OC on EGFR exon 20 NPG Ins D770_N771 (Ba/F3 cells) (Homo sapiens, UniProt P00533, INS770NPG).
# output < 100 nM

# input Output reported IC50 of the molecule COCC[C@@H]1CNC(=O)c2c1[nH]c(-c1ccncn1)c2Nc1cccc(Cl)c1OC [445a] on EGFR exon 20 NPG Ins D770_N771 (Ba/F3 cells) (Homo sapiens, UniProt P00533, INS770NPG).
# output < 100 nM

# input Output reported IC50 of the molecule COc1c(F)cccc1Nc1c(-c2ccncc2F)[nH]c2c1C(=O)NC[C@H]2C[C@@H]1CCO1 [Compound 422a] on EGFR exon 20 NPG Ins D770_N771 (Ba/F3 cells) (Homo sapiens, UniProt P00533, INS770NPG).
# output < 100 nM

# input Output reported IC50 of the molecule COc1c(F)cccc1Nc1c(-c2ccncc2F)[nH]c2c1C(=O)NCC2C[C@@H]1COCCO1 (single isomer, unassigned) on EGFR exon 20 NPG Ins D770_N771 (Ba/F3 cells) (Homo sapiens, UniProt P00533, INS770NPG).
# output < 100 nM

# input Output reported IC50 of the molecule Nc1nccc(-c2[nH]c3c(c2Nc2cccc(F)c2F)C(=O)NCC3)n1 on EGFR exon 20 NPG Ins D770_N771 (Ba/F3 cells) (Homo sapiens, UniProt P00533, INS770NPG).
# output 100 to 1000 nM

# input Output reported IC50 of the molecule COc1c(Cl)cccc1Nc1c(-c2ccnc(Nc3cnnn3CS(C)(=O)=O)n2)[nH]c2c1C(=O)NCC2 on EGFR exon 20 NPG Ins D770_N771 (Ba/F3 cells) (Homo sapiens, UniProt P00533, INS770NPG).
# output 100 to 1000 nM

# input Output reported IC50 of the molecule COc1c(Cl)cccc1Nc1c(-c2ccncn2)[nH]c2c1C(=O)NC[C@H]2C[C@@H]1COCCO1 on EGFR exon 20 NPG Ins D770_N771 (Ba/F3 cells) (Homo sapiens, UniProt P00533, INS770NPG).
# output < 100 nM
